test system: Pseudomonas aeruginosa UC-12120; test: minimum inhibitory concentration (MIC) testing according to CLSI guidelines, Pseudomonas aeruginosa; format: cell-based; conditions: Pseudomonas aeruginosa, UC12120; UC-12120, wild-type, labeled as 1091-05; overnight incubation; lower of duplicate values; read-out: AB-MBT: Pseudomonas aeruginosa 1091-05: MIC (MstRcn)
Assay Readout: MIC (µg/mL)

(a) CC(C)(O/N=C(\C(=O)N[C@@H]1C(=O)N(S(=O)(=O)O)[C@@H]1CNC(=O)NCc1cc(=O)c(O)cn1O)c1nc(N)sc1Cl)C(=O)O [Example 29]
(b) CC(C)(O/N=C(\C(=O)N[C@@H]1C(=O)N(S(=O)(=O)O)[C@@H]1CNC(=O)C1CN(Cc2cc(=O)c(O)c[nH]2)C1)c1csc(N)n1)C(=O)O [Example 9]
(c) CC(C)(O/N=C(\C(=O)N[C@@H]1C(=O)N(S(=O)(=O)[O-])[C@@H]1CNC(=O)OCc1cc(=O)c(O)cn1O)c1csc(N)n1)C(=O)[O-].[Na+].[Na+] [Example 5]
Could you list the above compounds by MIC, going from the biggest number down? A ranking is expressed here by listing the labels in the requested order.
b, a, c
